Reported viability at 4 days, 0.01 µM values are given for each entry in this list.
experiment: Cyto-toxicity (MTT assay); assay type: cell-based
Write it as a number; the unit % goes unstated.

INSERT INTO results (molecule_smiles, unit_abbreviation, readout_value) VALUES
  ('CC(C)C1=C2[C@H]3CC[C@@H]4[C@@]5(C)CC[C@H](OC(=O)[C@H]6C[C@@H](C(=O)O)C6(C)C)C(C)(C)[C@@H]5CC[C@@]4(C)[C@]3(C)CC[C@@]2(NC(=O)C(C)(C)NC(=O)c2ccc3[nH]cnc3c2)CC1=O', '%', 42);

// next item, viability at 4 days, 0.01 µM requested
// query Name the recorded viability at 4 days, 0.01 µM of the item Cc1ccc(C(=O)NC2(C(=O)N[C@@]34CC[C@]5(C)[C@H](CC[C@@H]6[C@@]7(C)CC[C@H](OC(=O)[C@H]8C[C@@H](C(=O)O)C8(C)C)C(C)(C)[C@@H]7CC[C@]65C)C3=C(C(C)C)C(=O)C4)CCCCC2)cn1 in your answer.
// result 56

---

assay: Cyto-toxicity (MTT assay); assay type: cell-based
result_type: viability at 4 days, 0.003 µM (%)
Write it as a number; the unit % goes unstated.

Here's what some known entries look like.
INSERT INTO measurements (molecule_smiles, readout_value) VALUES
  ('Cc1noc(C)c1C(=O)NC(C)(C)C(=O)N[C@@]12CC[C@]3(C)[C@H](CC[C@@H]4[C@@]5(C)CC[C@H](OC(=O)[C@H]6C[C@@H](C(=O)O)C6(C)C)C(C)(C)[C@@H]5CC[C@]43C)C1=C(C(C)C)C(=O)C2', 65),
  ('CC(C)C1=C2[C@H]3CC[C@@H]4[C@@]5(C)CC[C@H](OC(=O)[C@H]6C[C@@H](C(=O)O)C6(C)C)C(C)(C)[C@@H]5CC[C@@]4(C)[C@]3(C)CC[C@@]2(NC(=O)C(C)(C)NC(=O)c2cc(C(C)C)n[nH]2)CC1=O', 62),
  ('CC(C)C1=C2[C@H]3CC[C@@H]4[C@@]5(C)CC[C@H](OC(=O)[C@H]6C[C@@H](C(=O)O)C6(C)C)C(C)(C)[C@@H]5CC[C@@]4(C)[C@]3(C)CC[C@@]2(NC(=O)C(C)(C)NC(=O)c2ccc(S(C)(=O)=O)cc2)CC1=O', 85),
  ('Cc1cn(-c2ccc(C(=O)NC(C)(C)C(=O)N[C@@]34CC[C@]5(C)[C@H](CC[C@@H]6[C@@]7(C)CC[C@H](OC(=O)[C@H]8C[C@@H](C(=O)O)C8(C)C)C(C)(C)[C@@H]7CC[C@]65C)C3=C(C(C)C)C(=O)C4)cc2)cn1', 85),
  ('CC(C)C1=C2[C@H]3CC[C@@H]4[C@@]5(C)CC[C@H](OC(=O)[C@H]6C[C@@H](C(=O)O)C6(C)C)C(C)(C)[C@@H]5CC[C@@]4(C)[C@]3(C)CC[C@@]2(NC(=O)C2(NC(=O)c3ncccn3)CCC2)CC1=O', 80),
  ('CC(C)C1=C2[C@H]3CC[C@@H]4[C@@]5(C)CC[C@H](OC(=O)[C@H]6C[C@@H](C(=O)O)C6(C)C)C(C)(C)[C@@H]5CC[C@@]4(C)[C@]3(C)CC[C@@]2(NC(=O)C(C)(C)NC(=O)c2ccc(N3CCOCC3)cc2)CC1=O', 61),
  ('CC(C)C1=C2[C@H]3CC[C@@H]4[C@@]5(C)CC[C@H](OC(=O)[C@H]6C[C@@H](C(=O)O)C6(C)C)C(C)(C)[C@@H]5CC[C@@]4(C)[C@]3(C)CC[C@@]2(NC(=O)C(C)(C)NC(=O)c2cccnc2N2CCOCC2)CC1=O', 86);

// next item, viability at 4 days, 0.003 µM requested
// query Name the recorded viability at 4 days, 0.003 µM of the item Cc1cccc(NC(=O)NC(C)(C)C(=O)N[C@@]23CC[C@]4(C)[C@H](CC[C@@H]5[C@@]6(C)CC[C@H](OC(=O)[C@H]7C[C@@H](C(=O)O)C7(C)C)C(C)(C)[C@@H]6CC[C@]54C)C2=C(C(C)C)C(=O)C3)n1 in your answer.
// result 84

---

Reported viability at 4 days, 0.01 µM values are given for each entry in this list.
experiment: Cyto-toxicity (MTT assay); type: cell-based
Write it as a number; the unit % goes unstated.

Here's what some known entries look like.
INSERT INTO results (molecule, readout_value) VALUES
  ('CC(C)C1=C2[C@H]3CC[C@@H]4[C@@]5(C)CC[C@H](OC(=O)[C@H]6C[C@@H](C(=O)O)C6(C)C)C(C)(C)[C@@H]5CC[C@@]4(C)[C@]3(C)CC[C@@]2(NC(=O)C(C)(C)NC(=O)CN(C)C)CC1=O [Example 59]', 94),
  ('CCOC(=O)NC(C)(C)C(=O)N[C@@]12CC[C@]3(C)[C@H](CC[C@@H]4[C@@]5(C)CC[C@H](OC(=O)[C@H]6C[C@@H](C(=O)O)C6(C)C)C(C)(C)[C@@H]5CC[C@]43C)C1=C(C(C)C)C(=O)C2 [Example 64]', 26),
  ('CC(C)C1=C2[C@H]3CC[C@@H]4[C@@]5(C)CC[C@H](OC(=O)[C@H]6C[C@@H](C(=O)O)C6(C)C)C(C)(C)[C@@H]5CC[C@@]4(C)[C@]3(C)CC[C@@]2(NC(=O)C(C)(C)NC(=O)c2ccc(N)nc2)CC1=O [Example 6]', 60);

// next item, viability at 4 days, 0.01 µM requested
// query Name the recorded viability at 4 days, 0.01 µM of the item CC(C)C1=C2[C@H]3CC[C@@H]4[C@@]5(C)CC[C@H](OC(=O)[C@H]6C[C@@H](C(=O)O)C6(C)C)C(C)(C)[C@@H]5CC[C@@]4(C)[C@]3(C)CC[C@@]2(NC(=O)C(C)(C)NC(=O)c2ccc(C(F)(F)F)cc2)CC1=O [Example 25] in your answer.
// result 31

---

experiment: Cyto-toxicity (MTT assay); type: cell-based
result_type: viability at 4 days, 0.1 µM (%)
Write it as a number; the unit % goes unstated.

Here's what some known entries look like.
INSERT INTO results (molecule_smiles, result_type, readout_value) VALUES
  ('Cc1ccc(NC(=O)NC(C)(C)C(=O)N[C@@]23CC[C@]4(C)[C@H](CC[C@@H]5[C@@]6(C)CC[C@H](OC(=O)[C@H]7C[C@@H](C(=O)O)C7(C)C)C(C)(C)[C@@H]6CC[C@]54C)C2=C(C(C)C)C(=O)C3)cn1', 'viability at 4 days, 0.1 µM', 5),
  ('CC(C)C1=C2[C@H]3CC[C@@H]4[C@@]5(C)CC[C@H](OC(=O)[C@H]6C[C@@H](C(=O)O)C6(C)C)C(C)(C)[C@@H]5CC[C@@]4(C)[C@]3(C)CC[C@@]2(NC(=O)C(C)(C)NC(=O)CN(C)C)CC1=O', 'viability at 4 days, 0.1 µM', 15),
  ('CC(C)C1=C2[C@H]3CC[C@@H]4[C@@]5(C)CC[C@H](OC(=O)[C@H]6C[C@@H](C(=O)O)C6(C)C)C(C)(C)[C@@H]5CC[C@@]4(C)[C@]3(C)CC[C@@]2(NC(=O)C2(NC(=O)c3ccc(Cl)cc3)CCC2)CC1=O', 'viability at 4 days, 0.1 µM', 5);

// next item, viability at 4 days, 0.1 µM requested
// query Name the recorded viability at 4 days, 0.1 µM of the item Cc1cnc(C(=O)NC(C)(C)C(=O)N[C@@]23CC[C@]4(C)[C@H](CC[C@@H]5[C@@]6(C)CC[C@H](OC(=O)[C@H]7C[C@@H](C(=O)O)C7(C)C)C(C)(C)[C@@H]6CC[C@]54C)C2=C(C(C)C)C(=O)C3)cn1 in your answer.
// result 9

---

test: Single dose oral pharmacokinetic study; format: in vivo; details: mouse; Mice oral PK @30 mg/kg; plasma; vehicle 10% Solutol+20% PEG; read-out: Cmax
result_type: Cmax (ng/mL)
Write it as a number; the unit ng/mL goes unstated.

Here's what some known entries look like.
INSERT INTO results (compound, unit_abbreviation, readout_value) VALUES
  ('CC(C)C1=C2[C@H]3CC[C@@H]4[C@@]5(C)CC[C@H](OC(=O)[C@H]6C[C@@H](C(=O)O)C6(C)C)C(C)(C)[C@@H]5CC[C@@]4(C)[C@]3(C)CC[C@@]2(NC(=O)C(C)(C)NC(=O)c2cnn3cccnc23)CC1=O [Example 54]', 'ng/mL', 29200),
  ('CC(C)C1=C2[C@H]3CC[C@@H]4[C@@]5(C)CC[C@H](OC(=O)[C@H]6C[C@@H](C(=O)O)C6(C)C)C(C)(C)[C@@H]5CC[C@@]4(C)[C@]3(C)CC[C@@]2(NC(=O)C(C)(C)NC(=O)c2ccc3ccccc3n2)CC1=O [Example 28]', 'ng/mL', 16200),
  ('Cc1ccc(C(=O)NC(C)(C)C(=O)N[C@@]23CC[C@]4(C)[C@H](CC[C@@H]5[C@@]6(C)CC[C@H](OC(=O)[C@H]7C[C@@H](C(=O)O)C7(C)C)C(C)(C)[C@@H]6CC[C@]54C)C2=C(C(C)C)C(=O)C3)cc1 [Example 23]', 'ng/mL', 29700);

// next item, Cmax requested
// query Name the recorded Cmax of the item CC(C)C1=C2[C@H]3CC[C@@H]4[C@@]5(C)CC[C@H](OC(=O)[C@H]6C[C@@H](C(=O)O)C6(C)C)C(C)(C)[C@@H]5CC[C@@]4(C)[C@]3(C)CC[C@@]2(NC(=O)C2(NC(=O)c3cccnc3N3CCOCC3)CCC2)CC1=O [Example 45] in your answer.
// result 21200

Source listed as patent US20170008921A1.
